# Test system: panel of 48 cancer-derived cell lines
# test_summary: Proliferation assay on diverse cancer cell line panel, CellTiter-Glo, 72 hours
# Assay type: cell-based
# experimental_setup: LoVo, Large intestine/Colorectum, 72 hours
readout: IC50 (µM)
Give your result in µM as a bare value.

Tell me IC50 reported for CN(C)CCNC(=O)c1ccc(-c2ccc(-c3ccc(Cl)cc3)n2-c2ccccc2C(F)(F)F)cc1 (single isomer, unassigned) [Atropisomer A-1]
8.36

====

# test_summary: Gravimetric solubility in water
# Format: physicochemical
# experimental_setup: thermodynamic from solid; gravimetric, water
readout: solubility

Tell me solubility reported for CN(C)CCNC(=O)c1ccc(-c2ccc(-c3ccc(Cl)cc3)n2-c2ccccc2C(F)(F)F)cc1 (single isomer, unassigned) [Atropisomer A-2]
< 5000 µg/mL

====

# test_summary: Mouse PK, plasma after i.v. and p.o. dosing (oral bioavailability)
# Format: in vivo, Male CD-1 mice
# experimental_setup: mouse, 2 mg/kg; 2 mq/Kq IV, male CD-1 mice, plasma; read-out: T ½ (converted)
readout: half-life (h)
Give your result in h as a bare value.

CN(C)CCNC(=O)c1ccc(-c2ccc(-c3ccc(Cl)cc3)n2-c2ccccc2C(F)(F)F)nc1 (single isomer, unassigned) [Atropisomer A-3]    8.4

Let us examine a further case.
Tell me half-life reported for CN(C)CCNC(=O)c1ccc(-c2ccc(-c3ccc(Cl)cc3)n2-c2ccccc2C(F)(F)F)cc1 (single isomer, unassigned) [Atropisomer A-2]
9

====

# test_summary: Mouse PK, brain exposure after p.o. dosing
# Type: in vivo, Male CD-1 mice
# experimental_setup: mouse, po; brain exposure, p.o. 10 mg/kg, male CD-1 mice
Measured Tmax, listed per entry for reference.
Give your result in h as a bare value.

CN(C)CCNC(=O)c1ccc(-c2ccc(-c3ccc(Cl)cc3)n2-c2ccccc2C(F)(F)F)nc1 (single isomer, unassigned) [Atropisomer A-3]    8

Let us examine a further case.
Tell me Tmax reported for CN(C)CCNC(=O)c1ccc(-c2ccc(-c3ccc(Cl)cc3)n2-c2ccccc2C(F)(F)F)cc1 (single isomer, unassigned) [Atropisomer A-2]
8

====

# Test system: panel of 48 cancer-derived cell lines
# test_summary: Proliferation assay on diverse cancer cell line panel, CellTiter-Glo, 72 hours
# Type: cell-based
# experimental_setup: Capan-1, Pancreas, 72 hours
readout: IC50

Tell me IC50 reported for CN(C)CCNC(=O)c1ccc(-c2ccc(-c3ccc(Cl)cc3)n2-c2ccccc2C(F)(F)F)cc1 (single isomer, unassigned) [Atropisomer A-1]
> 10 µM

====

# test_summary: Mouse PK, brain exposure after p.o. dosing
# Type: in vivo, Male CD-1 mice
# experimental_setup: male, CD-1, mouse, brain and plasma, 10 mg/kg; brain:plasma, oral dosing in mice; read-out: AUC B:P ratio
readout: Kp
Note: the reply should be a number with no unit written.

Tell me Kp reported for CN(C)CCNC(=O)c1ccc(-c2ccc(-c3ccc(Cl)cc3)n2-c2ccccc2C(F)(F)F)cc1 (single isomer, unassigned) [Atropisomer A-2]
3.3

====

# test_summary: Mouse PK, plasma after i.v. and p.o. dosing (oral bioavailability)
# Assay type: in vivo, Male CD-1 mice
# experimental_setup: mouse, 10 mg/kg; 10 mq/Kq PO, male CD-1 mice, plasma; read-out: T ½ (converted)
readout: half-life (h)
Give your result in h as a bare value.

CN(C)CCNC(=O)c1ccc(-c2ccc(-c3ccc(Cl)cc3)n2-c2ccccc2C(F)(F)F)cc1 (single isomer, unassigned) [Atropisomer A-2]    10.7

Let us examine a further case.
Tell me half-life reported for CN(C)CCNC(=O)c1ccc(-c2ccc(-c3ccc(Cl)cc3)n2-c2ccccc2C(F)(F)F)nc1 (single isomer, unassigned) [Atropisomer A-3]
8.3
